FYI, the data here is from PubChem BioAssay (NCI).

testProtocol: NCI Yeast Anticancer Drug Screen. Data for the rad50 strain (AID 155)
conditionsUsed: S. cerevisiae rad50 strain growth inhibition; at 50.0 µM
Protocol: Growth inhibition of yeast strains with defined genetic alterations is measured as a screen for potential anti-cancer activity. Selected strains with alterations in DNA damage repair or cell cycle control were exposed to compounds and growth inhibition was measured relative to vehicle treated controls. The strain used in this assay is rad50
Compounds without any hit were thinned out: in the full panel of roughly 79,000, 15% have a hit. Activity calls are given as the source filed them. Cut-off read from the data, not from the text of the source: active = growth inhibition above about 70%; inactive = the rest.
Labels: active, inactive

[
  {
    "compound": "O=C1c2ccccc2C(=O)N1/N=C\\c1ccc(O)cc1",
    "classLabel": "inactive"
  },
  {
    "compound": "Cc1ccc(S(=O)(=O)OCC(C)C(c2ccccc2)c2ccccc2)cc1 (stereo unspecified)",
    "classLabel": "inactive"
  },
  {
    "compound": "Cc1cc(Cl)ccc1NC(=O)Nc1c(Oc2ccc(Cl)cc2)ccc(Cl)c1S(=O)(=O)O",
    "classLabel": "active"
  },
  {
    "compound": "COc1ccc(CCl)c(C)c1OC",
    "classLabel": "inactive"
  },
  {
    "compound": "Cc1cc(N=C2C=CC(=O)C=C2)ccc1O",
    "classLabel": "inactive"
  },
  {
    "compound": "CC(=O)Nc1ccc(Br)cc1",
    "classLabel": "inactive"
  },
  {
    "compound": "OCC[N+]1(CCO)CCOCC1",
    "classLabel": "inactive"
  },
  {
    "compound": "CCCCCC[C@H](C/C=C\\CCCCCCCC(=O)OCCCC)OC(C)=O",
    "classLabel": "inactive"
  },
  {
    "compound": "CCCCCCCCOc1ccc(Cl)cc1",
    "classLabel": "inactive"
  },
  {
    "compound": "CCOC(=O)c1ccc(Nc2nc3ccccc3o2)cc1",
    "classLabel": "inactive"
  },
  {
    "compound": "COC(=O)c1nc(=S)[nH]c(C(=O)OC)c1C(=O)c1cccnc1",
    "classLabel": "inactive"
  },
  {
    "compound": "CC(=O)c1cc2ccccc2o1",
    "classLabel": "inactive"
  },
  {
    "compound": "Nc1nc(=O)[nH]nc1SCc1ccccc1",
    "classLabel": "inactive"
  },
  {
    "compound": "Nc1[nH][nH]c(=O)c1N=Nc1ccccc1",
    "classLabel": "inactive"
  },
  {
    "compound": "OCCN1CCN(C2=Nc3cccnc3Nc3cscc32)CC1",
    "classLabel": "inactive"
  },
  {
    "compound": "CN(C)c1ccc(C=Nc2ccc3c(c2)C(N2CCOCC2)c2ccccc2-3)cc1 (stereo unspecified)",
    "classLabel": "inactive"
  },
  {
    "compound": "Nc1ccc2ccc(NS(=O)(=O)N3CCCCC3)cc2c1",
    "classLabel": "inactive"
  },
  {
    "compound": "CCOc1nc(N)nc(C)c1N=Nc1ccc(O)cc1",
    "classLabel": "inactive"
  },
  {
    "compound": "c1ccc(B2O[C@H]3CCCC[C@@H]3O2)cc1",
    "classLabel": "inactive"
  },
  {
    "compound": "O=c1c(Br)c(-c2ccccc2Br)[nH]c2ccccc12",
    "classLabel": "inactive"
  },
  {
    "compound": "CCN(CC)CCN(N)CCN(CC)CC",
    "classLabel": "inactive"
  },
  {
    "compound": "Cc1cc(Cl)ccc1OC(=O)NC1CCCCC1",
    "classLabel": "inactive"
  },
  {
    "compound": "COC(=O)c1nc(=S)[nH]c(C(=O)OC)c1C(=O)c1ccc(OC)cc1",
    "classLabel": "inactive"
  },
  {
    "compound": "O=[N+]([O-])c1ccc(SC2OC(CO)C(O)C(O)C2O)c([N+](=O)[O-])c1 (stereo unspecified)",
    "classLabel": "inactive"
  },
  {
    "compound": "CCCOC(=O)/C=C(\\Cl)C(=O)OCCC",
    "classLabel": "inactive"
  },
  {
    "compound": "CCc1cccc(CC)c1N(C(C)=O)C(C)=O",
    "classLabel": "inactive"
  }
]
